- Target: Alpha-1B adrenergic receptor (Homo sapiens, UniProt P35368)
- Sequence (P35368 whole entry): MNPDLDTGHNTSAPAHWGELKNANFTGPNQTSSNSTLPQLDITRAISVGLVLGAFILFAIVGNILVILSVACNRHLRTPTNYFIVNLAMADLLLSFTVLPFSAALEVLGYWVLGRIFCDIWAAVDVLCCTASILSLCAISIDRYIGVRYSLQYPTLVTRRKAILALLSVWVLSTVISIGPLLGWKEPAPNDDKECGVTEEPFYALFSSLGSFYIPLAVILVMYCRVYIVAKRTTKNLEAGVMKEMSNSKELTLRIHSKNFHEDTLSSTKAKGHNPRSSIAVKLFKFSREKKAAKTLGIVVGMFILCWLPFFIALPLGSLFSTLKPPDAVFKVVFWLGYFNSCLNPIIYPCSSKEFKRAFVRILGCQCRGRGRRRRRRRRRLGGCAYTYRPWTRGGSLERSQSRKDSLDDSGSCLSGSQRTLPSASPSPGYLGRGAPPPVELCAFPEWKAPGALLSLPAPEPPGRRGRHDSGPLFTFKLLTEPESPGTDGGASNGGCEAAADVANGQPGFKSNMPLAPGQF
- Test Details: Binding affinity to human alpha1B adrenergic receptor transfected in COS1 cells assessed as compound required to occupy 50% of receptor
- Type: cell-based, COS-1
Readout Label: Ki (nM)
Please respond with the number in nM and leave the unit unwritten.

{"columns": ["Test Smiles", "Target", "Readout Label", "Test Value"],
 "data": [
  ["c1ccc2c(NCCNc3ccnc4ccccc34)ccnc2c1", "Alpha-1B adrenergic receptor (Homo sapiens, UniProt P35368)", "Ki", 28],
  ["c1ccc2c(NCCCCCCCNc3ccnc4ccccc34)ccnc2c1", "Alpha-1B adrenergic receptor (Homo sapiens, UniProt P35368)", "Ki", 148],
  ["Cc1ccc2c(NCCCCCCCNc3ccnc4cc(C)ccc34)ccnc2c1", "Alpha-1B adrenergic receptor (Homo sapiens, UniProt P35368)", "Ki", 51],
  ["Cc1ccc2nccc(NCCCCCCCNc3ccnc4ccc(C)cc34)c2c1", "Alpha-1B adrenergic receptor (Homo sapiens, UniProt P35368)", "Ki", 151],
  ["COc1ccc2c(NCCNc3ccnc4cc(OC)ccc34)ccnc2c1", "Alpha-1B adrenergic receptor (Homo sapiens, UniProt P35368)", "Ki", 50]
]}

Write down Ki measured for item "COc1cccc2c(NCCNc3ccnc4c(OC)cccc34)ccnc12" 324

Quote Ki reported for "Cc1ccc2nccc(NCCNc3ccnc4ccc(C)cc34)c2c1" please. 19

Read the entry "COc1ccc2c(NCCCCCCCNc3ccnc4cc(OC)ccc34)ccnc2c1" and write its reported Ki. 35

Provide one value: measured Ki of "Cc1ccc2c(NCCNc3ccnc4cc(C)ccc34)ccnc2c1" 48

Specify Ki for "COc1ccc2nccc(NCCCCCCCNc3ccnc4ccc(OC)cc34)c2c1" and stop. 148

Let me know recorded Ki for "COc1cccc2c(NCCCCCCCNc3ccnc4c(OC)cccc34)ccnc12" , thanks. 155

Supply measured Ki of "Cc1cccc2c(NCCNc3ccnc4c(C)cccc34)ccnc12" in your reply. 40

* * *

Form field: pKi (one value per entry).
- Target: Alpha-1A adrenergic receptor (Homo sapiens, UniProt P35348)
- Sequence (P35348 whole entry): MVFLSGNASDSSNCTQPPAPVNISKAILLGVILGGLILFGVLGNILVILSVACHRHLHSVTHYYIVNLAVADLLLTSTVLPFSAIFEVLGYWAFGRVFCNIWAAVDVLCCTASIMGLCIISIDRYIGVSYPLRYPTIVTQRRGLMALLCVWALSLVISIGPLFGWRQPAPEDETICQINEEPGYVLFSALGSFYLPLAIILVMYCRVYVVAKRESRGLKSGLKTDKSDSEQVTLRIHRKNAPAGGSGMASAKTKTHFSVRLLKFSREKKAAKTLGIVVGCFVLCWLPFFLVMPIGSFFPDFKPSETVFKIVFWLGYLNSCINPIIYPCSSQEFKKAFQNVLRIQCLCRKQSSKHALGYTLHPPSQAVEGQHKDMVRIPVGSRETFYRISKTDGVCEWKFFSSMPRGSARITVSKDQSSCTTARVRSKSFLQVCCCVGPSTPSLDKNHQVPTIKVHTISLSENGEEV
- Test Details: Binding affinity to human alpha1A adrenergic receptor transfected in COS1 cells assessed as compound required to occupy 50% of receptor
- Assay type: cell-based, COS-1
# pKi: negative log10 of molar concentration; output just the value

Take a look at these entries with their results.
{"columns": ["Test Smiles", "Test Value"],
 "data": [
  ["COc1ccc2nccc(NCCCCCCCNc3ccnc4ccc(OC)cc34)c2c1", 6.50],
  ["c1ccc2c(NCCCCCCCNc3ccnc4ccccc34)ccnc2c1", 6.90],
  ["Cc1cccc2c(NCCNc3ccnc4c(C)cccc34)ccnc12", 8.15],
  ["COc1cccc2c(NCCCCCCCNc3ccnc4c(OC)cccc34)ccnc12", 7.13],
  ["COc1ccc2c(NCCCCCCCNc3ccnc4cc(OC)ccc34)ccnc2c1", 6.59]
]}

Consider the molecule "COc1cccc2c(NCCNc3ccnc4c(OC)cccc34)ccnc12" . State its measured pKi. 6.71

Fill in reported pKi for this entry: "Cc1ccc2c(NCCCCCCCNc3ccnc4cc(C)ccc34)ccnc2c1" 6.95

* * *

- Target: 5-hydroxytryptamine receptor 1A (Homo sapiens)
- Sequence (P08908 whole entry): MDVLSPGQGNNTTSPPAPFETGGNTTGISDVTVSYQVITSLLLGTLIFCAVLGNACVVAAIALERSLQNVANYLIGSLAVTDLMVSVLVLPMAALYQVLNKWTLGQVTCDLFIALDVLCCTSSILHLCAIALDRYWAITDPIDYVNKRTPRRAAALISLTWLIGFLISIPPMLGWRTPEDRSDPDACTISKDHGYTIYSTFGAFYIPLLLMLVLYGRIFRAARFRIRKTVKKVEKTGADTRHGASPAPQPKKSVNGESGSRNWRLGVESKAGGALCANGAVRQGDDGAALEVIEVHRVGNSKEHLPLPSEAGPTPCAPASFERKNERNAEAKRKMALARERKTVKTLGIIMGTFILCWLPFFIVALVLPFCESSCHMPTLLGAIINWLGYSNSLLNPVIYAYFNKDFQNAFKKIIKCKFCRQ
- Test Details: Displacement of [3H]8-OH-DPAT from human 5HT1A receptor transfected in COS1 cells
- Type: cell-based, COS-1
Readout Label: Ki (nM)
Form entry: value (nM) — number only.

{"columns": ["Test Smiles", "Ki (nM)"],
 "data": [
  ["Cc1ccc2c(NCCNc3ccnc4cc(C)ccc34)ccnc2c1", 3470],
  ["Cc1ccc2nccc(NCCCCCCCNc3ccnc4ccc(C)cc34)c2c1", 1100],
  ["COc1ccc2c(NCCCCCCCNc3ccnc4cc(OC)ccc34)ccnc2c1", 2820]
]}

Fill in reported Ki for this entry: "COc1ccc2nccc(NCCCCCCCNc3ccnc4ccc(OC)cc34)c2c1" 1380

Respond only with Ki recorded for "Cc1ccc2nccc(NCCNc3ccnc4ccc(C)cc34)c2c1" 617

Complete the entry with Ki for "c1ccc2c(NCCCCCCCNc3ccnc4ccccc34)ccnc2c1" 832

Quote Ki reported for "COc1cccc2c(NCCCCCCCNc3ccnc4c(OC)cccc34)ccnc12" please. 603

Dear colleague, please send me the reported Ki for "Cc1ccc2c(NCCCCCCCNc3ccnc4cc(C)ccc34)ccnc2c1" when you can. 1260

Check the records and state Ki for "COc1cccc2c(NCCNc3ccnc4c(OC)cccc34)ccnc12" 3090

Give a short answer stating reported Ki for "Cc1cccc2c(NCCNc3ccnc4c(C)cccc34)ccnc12" . 1170

Please report Ki for the following compound: "COc1ccc2c(NCCNc3ccnc4cc(OC)ccc34)ccnc2c1" 891

For the compound "c1ccc2c(NCCNc3ccnc4ccccc34)ccnc2c1" , give its measured Ki value. 2290

* * *

- Target: Alpha-1D adrenergic receptor (Homo sapiens)
- Test Details: Displacement of [3H]-prazosin from human alpha1D adrenergic receptor transfected in COS1 cells
- Format: cell-based, COS-1
Listed molecules paired with reported Ki
Write the value in nM as a bare number.

{"columns": ["Test Smiles", "Test Value"],
 "data": [
  ["Cc1ccc2c(NCCCCCCCNc3ccnc4cc(C)ccc34)ccnc2c1", 490]
]}

// fetch Ki for "Cc1ccc2nccc(NCCNc3ccnc4ccc(C)cc34)c2c1" ; system: Alpha-1D adrenergic receptor (Homo sapiens) 490

System Alpha-1D adrenergic receptor (Homo sapiens). Read-out Ki. Item "c1ccc2c(NCCCCCCCNc3ccnc4ccccc34)ccnc2c1" . Report value. 309

State Ki on Alpha-1D adrenergic receptor (Homo sapiens). Entry: "Cc1ccc2nccc(NCCCCCCCNc3ccnc4ccc(C)cc34)c2c1" 479

# return Ki for "COc1ccc2nccc(NCCCCCCCNc3ccnc4ccc(OC)cc34)c2c1" , test system: Alpha-1D adrenergic receptor (Homo sapiens) 372

Look up and report Ki, with Alpha-1D adrenergic receptor (Homo sapiens) as system, for "Cc1cccc2c(NCCNc3ccnc4c(C)cccc34)ccnc12" 479

* * *

Below: a set of entries, each annotated with reported Ki.
- Target: Alpha-1D adrenergic receptor (Homo sapiens, UniProt P25100)
- Sequence (P25100 whole entry): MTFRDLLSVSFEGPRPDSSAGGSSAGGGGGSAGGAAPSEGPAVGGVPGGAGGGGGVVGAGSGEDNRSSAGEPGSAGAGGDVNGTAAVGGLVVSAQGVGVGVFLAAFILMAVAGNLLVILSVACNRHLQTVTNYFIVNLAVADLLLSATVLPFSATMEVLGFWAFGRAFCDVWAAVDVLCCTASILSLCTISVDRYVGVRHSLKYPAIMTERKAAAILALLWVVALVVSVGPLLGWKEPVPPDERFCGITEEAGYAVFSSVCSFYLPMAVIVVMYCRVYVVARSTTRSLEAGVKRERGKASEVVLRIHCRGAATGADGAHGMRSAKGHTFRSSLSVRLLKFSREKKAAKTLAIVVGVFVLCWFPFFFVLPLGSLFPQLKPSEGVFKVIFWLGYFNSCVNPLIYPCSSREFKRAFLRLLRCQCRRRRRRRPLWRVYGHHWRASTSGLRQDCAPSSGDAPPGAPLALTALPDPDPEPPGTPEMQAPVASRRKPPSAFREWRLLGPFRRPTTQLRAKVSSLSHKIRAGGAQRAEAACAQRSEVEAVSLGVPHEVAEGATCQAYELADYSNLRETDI
- Test Details: Binding affinity to human alpha1D adrenergic receptor transfected in COS1 cells assessed as compound required to occupy 50% of receptor
- Assay type: cell-based, COS-1
Write the value in nM as a bare number.

Worked examples, 5 compounds total:
{"columns": ["Test Smiles", "Readout Label", "Measurement Unit", "Test Value"],
 "data": [
  ["COc1cccc2c(NCCNc3ccnc4c(OC)cccc34)ccnc12", "Ki", "nM", 2000],
  ["COc1cccc2c(NCCCCCCCNc3ccnc4c(OC)cccc34)ccnc12", "Ki", "nM", 759],
  ["Cc1ccc2c(NCCNc3ccnc4cc(C)ccc34)ccnc2c1", "Ki", "nM", 204],
  ["Cc1ccc2nccc(NCCNc3ccnc4ccc(C)cc34)c2c1", "Ki", "nM", 490],
  ["Cc1ccc2nccc(NCCCCCCCNc3ccnc4ccc(C)cc34)c2c1", "Ki", "nM", 479]
]}

Note down Ki recorded for "COc1ccc2c(NCCNc3ccnc4cc(OC)ccc34)ccnc2c1" 214

Give me measured Ki, please, for this compound: "COc1ccc2c(NCCCCCCCNc3ccnc4cc(OC)ccc34)ccnc2c1" 229

* * *

Examples of compounds with documented Ki follow.
- Target: Alpha-1D adrenergic receptor (Homo sapiens, UniProt P25100)
- Sequence (P25100 whole entry): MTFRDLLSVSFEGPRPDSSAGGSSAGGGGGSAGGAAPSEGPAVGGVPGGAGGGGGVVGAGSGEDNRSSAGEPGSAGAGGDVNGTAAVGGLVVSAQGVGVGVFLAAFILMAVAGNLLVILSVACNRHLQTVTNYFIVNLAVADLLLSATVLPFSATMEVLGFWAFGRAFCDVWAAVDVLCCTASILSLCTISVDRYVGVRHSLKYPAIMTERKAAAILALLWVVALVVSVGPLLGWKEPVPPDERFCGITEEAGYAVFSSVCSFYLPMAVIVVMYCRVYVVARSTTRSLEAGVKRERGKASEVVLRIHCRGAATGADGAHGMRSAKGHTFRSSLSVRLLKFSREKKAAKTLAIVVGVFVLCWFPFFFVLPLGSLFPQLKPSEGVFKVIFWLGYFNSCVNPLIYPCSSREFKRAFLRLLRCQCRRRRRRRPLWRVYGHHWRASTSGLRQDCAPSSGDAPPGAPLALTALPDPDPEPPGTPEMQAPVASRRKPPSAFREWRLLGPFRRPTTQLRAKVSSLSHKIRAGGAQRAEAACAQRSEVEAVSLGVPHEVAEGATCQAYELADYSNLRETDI
- Test Details: Displacement of [3H]-prazosin from human alpha1D adrenergic receptor transfected in COS1 cells
- Format: cell-based, COS-1
Record the value in nM, omitting the unit from your answer.

Quote Alpha-1D adrenergic receptor (Homo sapiens, UniProt P25100) Ki for entry "COc1cccc2c(NCCNc3ccnc4c(OC)cccc34)ccnc12" . 2000

System Alpha-1D adrenergic receptor (Homo sapiens, UniProt P25100). Read-out Ki. Item "COc1ccc2c(NCCNc3ccnc4cc(OC)ccc34)ccnc2c1" . Report value. 214

Return reported Ki for target or system Alpha-1D adrenergic receptor (Homo sapiens, UniProt P25100), item "COc1cccc2c(NCCCCCCCNc3ccnc4c(OC)cccc34)ccnc12" . 759

Under Alpha-1D adrenergic receptor (Homo sapiens, UniProt P25100), report Ki for "COc1ccc2c(NCCCCCCCNc3ccnc4cc(OC)ccc34)ccnc2c1" 229

System Alpha-1D adrenergic receptor (Homo sapiens, UniProt P25100). Read-out Ki. Item "c1ccc2c(NCCNc3ccnc4ccccc34)ccnc2c1" . Report value. 331

With Alpha-1D adrenergic receptor (Homo sapiens, UniProt P25100) as the test system, provide measured Ki for this compound: "Cc1ccc2c(NCCNc3ccnc4cc(C)ccc34)ccnc2c1" 204
